Biological target: chCA XII (Homo sapiens, UniProt P00918, A65S/F130A/I91T/L203N/N67K/V134S)
Assay: Fluorescent thermal shift assay
ENDPOINT: Kd

Query block: Query Kd for NS(=O)(=O)c1ccc2ccccc2c1 [Compound 37, naphthalene‐2‐sulfonamide]
Result block: 6.7 µM

Where do these numbers come from? They come from paper PMC8095314.
